Source: patent US20240218022A1

- tested_system: mouse VISTA (mVISTA) (Mus musculus)
- Construct: expressed in transfected cells; host or cells: Human embryonic kidney 293T cells
- Sequence (Q9D659 33-308): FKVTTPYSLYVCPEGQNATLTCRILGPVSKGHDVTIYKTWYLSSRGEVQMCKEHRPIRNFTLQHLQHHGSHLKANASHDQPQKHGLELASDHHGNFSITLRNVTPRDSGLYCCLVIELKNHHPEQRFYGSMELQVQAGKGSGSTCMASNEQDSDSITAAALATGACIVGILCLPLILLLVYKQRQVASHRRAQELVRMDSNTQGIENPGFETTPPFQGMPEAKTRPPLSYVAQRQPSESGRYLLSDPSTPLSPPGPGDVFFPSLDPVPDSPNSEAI
- protocol: Cell-Based Binding High-Content Assay For mVISTA (HC CBA mVISTA)
- condition: 293T cells expressing mouse VISTA; competition with biotinylated peptide (2 nM); read-out: HC CBA mVISTA IC50
- Text: Cell-Based Binding High-Content Assay For mVISTA Human embryonic kidney 293T cells (293T) expressing mouse VISTA (mVISTA) were used for the assessment of compounds competing with the binding of a biotinylated peptide. […] The plates were washed 3 times in dPBS, sealed, and read on a CellInsight NXT High Content Screening Platform IC903000 (Thermo Scientific). […]
Positions of bridges follow the written chain, without caps; N, C: chain ends. Non-standard residues stand in square brackets, D forms with d. Residues, ends and D or L forms follow the SMILES beside them. Ahp(2) = CCCCC[C@H](N)C(=O)O; NHexGly = CCCCCCNCC(=O)O; Nle = CCCC[C@H](N)C(=O)O
The label met is reserved for IC50 strictly under 20 nM; not met covers values equal to or above it.

Reference set, count: 5
Q: Hi there! Is IC50 for CCCCCCN1CC(=O)N[C@@H](Cc2ccc(O)cc2)C(=O)N[C@@H](CCCCC)C(=O)N[C@@H](CC(N)=O)C(=O)N[C@@H](CCCNC(=N)N)C(=O)N[C@@H](Cc2c[nH]c3ccccc23)C(=O)N[C@@H](CCCCC)C(=O)N2CCC[C@H]2C(=O)N[C@@H](C(C)C)C(=O)N[C@@H](CO)C(=O)N[C@H](C(=O)NCC(=O)O)CSCC(=O)N[C@@H](Cc2ccccc2)C(=O)N[C@@H](Cc2ccc(O)cc2)C(=O)N[C@@H](CC(=O)O)C1=O [Example 1098] ({CH2CO}-FYD[NHexGly]Y[Ahp(2)]NRW[Ahp(2)]PVSCG-OH; thioether N-14) below 20 nM, do you know?
Ans: met

Q: Hi there! Is IC50 for CCCCCCN1CC(=O)N[C@@H](Cc2ccc(O)cc2)C(=O)N[C@@H](CC(C)C)C(=O)N[C@@H](CC(=O)O)C(=O)N[C@@H](CCCNC(=N)N)C(=O)N[C@@H](CC(C)C)C(=O)N[C@@H](CCCCC)C(=O)N2CCC[C@H]2C(=O)N[C@@H](C(C)C)C(=O)N[C@@H](CC(=O)O)C(=O)N[C@H](C(=O)NCC(N)=O)CSCC(=O)N[C@@H](Cc2ccccc2)C(=O)N[C@@H](Cc2ccc(O)cc2)C(=O)N[C@@H](CC(=O)O)C1=O [Example 1014] ({CH2CO}-FYD[NHexGly]YLDRL[Ahp(2)]PVDCG-NH2; thioether N-14) below 20 nM, do you know?
Ans: met

Q: Hi there! Is IC50 for CCCCCCN1CC(=O)N[C@@H](Cc2ccc(O)cc2)C(=O)N[C@@H](CCCC)C(=O)N[C@@H](CC(=O)O)C(=O)N[C@@H](CCCNC(=N)N)C(=O)N[C@@H](CC(C)C)C(=O)N[C@@H](CCCCC)C(=O)N2CCC[C@H]2C(=O)N[C@@H](C(C)C)C(=O)N[C@@H](CC(C)C)C(=O)N[C@H](C(=O)NCC(=O)O)CSCC(=O)N[C@@H](Cc2ccccc2)C(=O)N[C@@H](Cc2ccc(O)cc2)C(=O)N[C@@H](CC(=O)O)C1=O [Example 1025] ({CH2CO}-FYD[NHexGly]Y[Nle]DRL[Ahp(2)]PVLCG-OH; thioether N-14) below 20 nM, do you know?
Ans: not met

Q: Hi there! Is IC50 for CCCCCCN1CC(=O)N[C@@H](Cc2ccc(O)cc2)C(=O)N[C@@H](CCCNC(=N)N)C(=O)N[C@@H](CC(N)=O)C(=O)N[C@@H](CCCNC(=N)N)C(=O)N[C@@H](CC(C)C)C(=O)N[C@@H](CCCCC)C(=O)N2CCC[C@H]2C(=O)N[C@@H](C(C)C)C(=O)N[C@@H](CC(=O)O)C(=O)N[C@H](C(=O)NCC(=O)O)CSCC(=O)N[C@@H](Cc2ccccc2)C(=O)N[C@@H](Cc2ccc(O)cc2)C(=O)N[C@@H](CC(=O)O)C1=O [Example 1012] ({CH2CO}-FYD[NHexGly]YRNRL[Ahp(2)]PVDCG-OH; thioether N-14) below 20 nM, do you know?
Ans: not met

Q: Hi there! Is IC50 for CCCCCCN1CC(=O)N[C@@H](Cc2ccc(O)cc2)C(=O)N[C@@H](CCCCC)C(=O)N[C@@H](CCCCN)C(=O)N[C@@H](CCCNC(=N)N)C(=O)N[C@@H](CC(C)C)C(=O)N[C@@H](CCCCC)C(=O)N2CCC[C@H]2C(=O)N[C@@H](C(C)C)C(=O)N[C@@H](CO)C(=O)N[C@H](C(=O)NCC(N)=O)CSCC(=O)N[C@@H](Cc2ccccc2)C(=O)N[C@@H](Cc2ccc(O)cc2)C(=O)N[C@@H](CC(=O)O)C1=O [Example 1056] ({CH2CO}-FYD[NHexGly]Y[Ahp(2)]KRL[Ahp(2)]PVSCG-NH2; thioether N-14) below 20 nM, do you know?
Ans: met

Continuing:
Q: Hi there! Is IC50 for CCCCCCN1CC(=O)N[C@@H](Cc2ccc(O)cc2)C(=O)N[C@@H](CC(C)C)C(=O)N[C@@H](CC(N)=O)C(=O)N[C@@H](CCCNC(=N)N)C(=O)N[C@@H](CC(C)C)C(=O)N[C@@H](CCCCC)C(=O)N2CCC[C@H]2C(=O)N[C@@H](C(C)C)C(=O)N[C@@H](CC(N)=O)C(=O)N[C@H](C(=O)NCC(N)=O)CSCC(=O)N[C@@H](Cc2ccccc2)C(=O)N[C@@H](Cc2ccc(O)cc2)C(=O)N[C@@H](CC(=O)O)C1=O [Example 1027] ({CH2CO}-FYD[NHexGly]YLNRL[Ahp(2)]PVNCG-NH2; thioether N-14) below 20 nM, do you know?
Ans: not met

Q: Hi there! Is IC50 for CCCCCCN1CC(=O)N[C@@H](Cc2ccc(O)cc2)C(=O)N[C@@H](CC(C)C)C(=O)N[C@@H](CC(N)=O)C(=O)N[C@@H](CCCNC(=N)N)C(=O)N[C@@H](CC(C)C)C(=O)N[C@@H](CCCCC)C(=O)N2CCC[C@H]2C(=O)N[C@@H](C(C)C)C(=O)N[C@@H](C)C(=O)N[C@H](C(=O)NCC(=O)O)CSCC(=O)N[C@@H](Cc2ccccc2)C(=O)N[C@@H](Cc2ccc(O)cc2)C(=O)N[C@@H](CC(=O)O)C1=O [Example 1008] ({CH2CO}-FYD[NHexGly]YLNRL[Ahp(2)]PVACG-OH; thioether N-14) below 20 nM, do you know?
Ans: not met

Q: Hi there! Is IC50 for CCCCCCN1CC(=O)N[C@@H](Cc2ccc(O)cc2)C(=O)N[C@@H](CCCC)C(=O)N[C@@H](CC(=O)O)C(=O)N[C@@H](CCCNC(=N)N)C(=O)N[C@@H](CC(C)C)C(=O)N[C@@H](CCCCC)C(=O)N2CCC[C@H]2C(=O)N[C@@H](C(C)C)C(=O)N[C@@H](C(C)C)C(=O)N[C@H](C(=O)NCC(=O)O)CSCC(=O)N[C@@H](Cc2ccccc2)C(=O)N[C@@H](Cc2ccc(O)cc2)C(=O)N[C@@H](CC(=O)O)C1=O [Example 1065] ({CH2CO}-FYD[NHexGly]Y[Nle]DRL[Ahp(2)]PVVCG-OH; thioether N-14) below 20 nM, do you know?
Ans: met
